Target: T1, biotinylated recombinant mouse IL-12Rβ2 (mouse, UniProt P97378 24-637, random biotinylated)
T1 construct: Recombinant protein produced in-house, biotinylated; also called mIL-12RB2; mouse IL-12RB2
T1 sequence: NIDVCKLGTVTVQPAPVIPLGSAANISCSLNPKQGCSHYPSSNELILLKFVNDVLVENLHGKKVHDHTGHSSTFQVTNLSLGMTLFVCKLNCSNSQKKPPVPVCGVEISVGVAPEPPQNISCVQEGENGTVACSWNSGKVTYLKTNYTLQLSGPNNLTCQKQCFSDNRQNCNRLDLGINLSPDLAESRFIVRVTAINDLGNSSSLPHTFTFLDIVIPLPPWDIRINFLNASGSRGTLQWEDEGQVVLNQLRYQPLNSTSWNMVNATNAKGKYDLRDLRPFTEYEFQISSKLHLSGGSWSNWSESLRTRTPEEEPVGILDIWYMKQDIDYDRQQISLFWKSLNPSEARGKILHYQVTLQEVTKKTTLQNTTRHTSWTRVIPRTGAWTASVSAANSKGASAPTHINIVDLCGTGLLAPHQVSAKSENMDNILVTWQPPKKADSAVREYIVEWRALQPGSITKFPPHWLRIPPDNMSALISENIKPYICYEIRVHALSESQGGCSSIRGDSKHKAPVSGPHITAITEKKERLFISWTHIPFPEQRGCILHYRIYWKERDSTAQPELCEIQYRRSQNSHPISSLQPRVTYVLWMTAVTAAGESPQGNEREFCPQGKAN
Experiment: BLI (Octet), periplasmic extract on biotinylated mIL-12Rβ2 on streptavidin tips
PROPERTY_MEASURED: Response
Reply with just the number.

Param item = anti-IL-12Rβ2 VHH clone 21054 (VHH, not shown: small tags and cut ends, tested as periplasmic extract; also called 3CRHM18) VHH: QVQLQESGGGLVQDGGSLRLSCAASGRTFSNYAMAWFRQAPGTEREFVAGLSGSGGDTAFYDNSVMGRFTISRDSAKNTMWLQINNLKPEDTAVYYCAAATHVVVSYGLVRKRGTYDYWGQGTQVTVSS ; retrieve measured Response.
0.699

Entry to check: anti-IL-12Rβ2 VHH clone 21062 (VHH, not shown: small tags and cut ends, tested as periplasmic extract; also called 3CRHM99) VHH: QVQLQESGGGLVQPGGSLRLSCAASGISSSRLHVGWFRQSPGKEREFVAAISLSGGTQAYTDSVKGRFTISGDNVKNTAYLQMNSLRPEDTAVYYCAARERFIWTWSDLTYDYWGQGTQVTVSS
0.812
